B1: CHIT1 (parent)
chain: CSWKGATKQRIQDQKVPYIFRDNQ

Variants of: B1
Experiment: protein stability index of a GFP-peptide fusion (GPS, HEK-293T) (PSI 1-6); higher = more stable;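 also: lentivirally expressed fusions sorted by FACS into six bins by GFP to DsRed ratio, PSI derived from sequencing read proportions per bin multiplied by bin number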
Conditions: c terminus: a fixed tail appended
Property Measured: protein stability index

    residue_change  measured
 0             W3S      3.14
 1            R21L       2.9
 2             K4F      1.26
 3             K8H      2.53
 4             K4H      3.06
 5            R10C      2.63
 6             A6C      2.06
 7            I19V      2.88
 8            F20V      3.09
 9             S2E      3.25
10            F20T      3.71
11            Q12T       2.9
12            Y18C       2.7
13            D13C      2.47
14            D13R      1.69
15             S2H      2.42
16            Q24A      2.29
17            Q14T      2.88
18             G5M      2.02
19            I11A      2.85
20            I19T      2.77
21             C1M      2.89
22            F20I         2
23            Q12D      3.08
24            Y18V      3.46
25             S2R         2
26             Q9N      2.62
27             K8S      2.44
28            Q14R      2.34
29            R21H      2.38
30            V16M      2.28
31             T7A      2.51
32            Q24K      3.16
33            D22S      2.42
34            D22I      1.57
35            D22Q      2.33
36            P17Y      1.75
37            F20L      3.47
38             K8W      2.03
39            D22K      2.42
40            F20D      3.16
41             W3R      3.71
42             W3K      3.63
43            I11V      2.98
44             W3I      2.95
45            I11F      2.44
